test.system: T1, MUC1 on HCT116/MUC1 cells (UniProt P15941 24-1255, limits assumed)
T1 construct: whole, on cells; also called MUC1 overexpressed cell line
T1 sequence (P15941 24-1255 limits assumed): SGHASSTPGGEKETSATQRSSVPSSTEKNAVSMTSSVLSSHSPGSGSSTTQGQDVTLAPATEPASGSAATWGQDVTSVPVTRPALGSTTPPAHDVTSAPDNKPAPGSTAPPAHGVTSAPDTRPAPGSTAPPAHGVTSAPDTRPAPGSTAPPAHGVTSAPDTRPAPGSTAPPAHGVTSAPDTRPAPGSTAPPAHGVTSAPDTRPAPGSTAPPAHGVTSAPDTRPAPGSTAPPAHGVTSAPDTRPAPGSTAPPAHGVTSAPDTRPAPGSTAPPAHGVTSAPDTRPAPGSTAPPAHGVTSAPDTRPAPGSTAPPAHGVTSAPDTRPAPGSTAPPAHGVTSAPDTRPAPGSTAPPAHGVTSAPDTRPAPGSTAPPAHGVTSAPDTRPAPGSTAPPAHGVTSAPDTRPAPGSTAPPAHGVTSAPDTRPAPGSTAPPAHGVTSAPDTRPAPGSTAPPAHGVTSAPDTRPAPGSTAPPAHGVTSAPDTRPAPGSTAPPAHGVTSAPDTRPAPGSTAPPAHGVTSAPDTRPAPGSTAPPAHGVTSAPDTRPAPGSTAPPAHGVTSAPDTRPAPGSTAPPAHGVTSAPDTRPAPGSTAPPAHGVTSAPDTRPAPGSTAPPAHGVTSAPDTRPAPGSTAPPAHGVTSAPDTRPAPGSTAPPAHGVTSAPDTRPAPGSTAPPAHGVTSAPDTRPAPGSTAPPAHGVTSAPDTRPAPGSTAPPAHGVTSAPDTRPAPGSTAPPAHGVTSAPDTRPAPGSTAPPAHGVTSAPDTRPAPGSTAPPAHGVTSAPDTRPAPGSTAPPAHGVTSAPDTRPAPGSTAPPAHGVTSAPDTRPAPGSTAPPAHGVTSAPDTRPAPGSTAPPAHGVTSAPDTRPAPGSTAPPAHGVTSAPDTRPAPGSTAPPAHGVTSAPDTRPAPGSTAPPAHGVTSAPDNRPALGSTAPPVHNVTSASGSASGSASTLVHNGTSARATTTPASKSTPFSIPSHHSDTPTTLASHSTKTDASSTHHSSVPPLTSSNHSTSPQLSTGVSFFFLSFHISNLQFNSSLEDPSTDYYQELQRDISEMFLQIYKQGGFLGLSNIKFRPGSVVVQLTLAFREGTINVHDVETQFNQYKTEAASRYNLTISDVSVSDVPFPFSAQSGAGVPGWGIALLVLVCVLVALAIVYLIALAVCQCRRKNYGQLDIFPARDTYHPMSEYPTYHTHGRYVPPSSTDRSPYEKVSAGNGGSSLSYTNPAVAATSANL
assay.explanation: FACS titration, HCT116/MUC1 cells, antibody at 125 nM
Label rule, in plain words: geometric mean of 300 and up is Yes, under 300 is No.

Example entries and their recorded answers appear below.
binder	category
VH4 + VL1 (antibody, V domains shown, Humanized IgG expressed in HEK293; also called humanized antibody VH4+VL1) VH: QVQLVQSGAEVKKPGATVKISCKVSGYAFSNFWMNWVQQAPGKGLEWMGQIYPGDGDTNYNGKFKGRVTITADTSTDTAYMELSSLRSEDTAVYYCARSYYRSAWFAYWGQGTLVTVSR VL: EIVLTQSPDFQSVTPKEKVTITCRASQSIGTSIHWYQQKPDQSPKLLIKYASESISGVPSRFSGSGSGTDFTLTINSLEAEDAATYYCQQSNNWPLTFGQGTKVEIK	No
VH5 + VL1 (antibody, V domains shown, Humanized IgG expressed in HEK293; also called humanized antibody VH5+VL1) VH: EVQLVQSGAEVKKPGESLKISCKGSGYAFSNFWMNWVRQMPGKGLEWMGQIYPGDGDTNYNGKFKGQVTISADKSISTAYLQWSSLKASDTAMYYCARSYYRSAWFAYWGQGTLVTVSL VL: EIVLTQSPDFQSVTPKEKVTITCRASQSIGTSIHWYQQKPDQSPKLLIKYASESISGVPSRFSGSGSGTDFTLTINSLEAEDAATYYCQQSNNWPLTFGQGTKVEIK	Yes
VH5 + VL3 (antibody, V domains shown, Humanized IgG expressed in HEK293; also called humanized antibody VH5+VL3) VH: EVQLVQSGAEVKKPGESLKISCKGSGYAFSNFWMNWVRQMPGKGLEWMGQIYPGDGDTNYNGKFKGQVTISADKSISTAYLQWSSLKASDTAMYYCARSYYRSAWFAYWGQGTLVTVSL VL: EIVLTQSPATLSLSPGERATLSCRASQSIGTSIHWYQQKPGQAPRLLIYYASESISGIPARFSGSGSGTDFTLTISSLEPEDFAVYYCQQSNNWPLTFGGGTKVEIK	No

input: # bool: geometric mean of VH2 + VL4 (antibody, V domains shown, Humanized IgG expressed in HEK293; also called humanized antibody VH2+VL4) VH: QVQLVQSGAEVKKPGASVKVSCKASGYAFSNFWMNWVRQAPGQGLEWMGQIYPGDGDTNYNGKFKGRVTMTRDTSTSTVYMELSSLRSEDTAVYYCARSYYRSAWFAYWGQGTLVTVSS VL: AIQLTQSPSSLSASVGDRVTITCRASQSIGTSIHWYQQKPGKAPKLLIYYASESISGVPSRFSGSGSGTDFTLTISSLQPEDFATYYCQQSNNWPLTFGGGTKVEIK >= 300
output: No

Value source: patent US20180036441A1
